Target: BRD4 (BDII_E352-M457) (Homo sapiens, UniProt O60885)
Construct: protocol
Test: TR-FRET bromodomain binding assay, BRD4 second bromodomain
Exercise: state measured Ki for each of the compounds provided.
Return type: number; implicit unit µM.

Recall and state the measured Ki for `CN1CCN(CC(=O)Nc2ccc3c(c2)-c2cn(C)c4c(=O)[nH]cc(c24)CN3c2ccc(F)cc2)CC1` .
0.0232

Identify measured Ki corresponding to `Cn1cc2c3c(c[nH]c(=O)c31)CN(c1ccc(Cl)cc1)c1ncc(NS(C)(=O)=O)cc1-2`
0.00221

Please report the measured Ki for `COC(=O)CCCNc1ccc2c(c1)-c1cn(C)c3c(=O)[nH]cc(c13)CN2c1ccc(F)cc1`
0.0125

Kindly indicate its recorded Ki. Item: `Cc1ccc(F)cc1CNC(=O)c1ccc2c(c1)-c1cn(C)c3c(=O)[nH]cc(c13)CN2c1ccc(F)cc1`
0.029
